- System: α1,3-L-fucosyltransferase of the soluble fraction of human ovarian tumor
- assay summary: Assay of α1,3-fucosyltransferase with synthetic acceptors, partially purified enzyme of ovarian tumor soluble fraction
- Type: biochemical
- recorded conditions: acceptor 3.0 mM, 37° C. 18 h
test readout: [14C] Fucose Incorporated (CPM)
Answer format: numeric, CPM implied, no suffix.

Below: 4 compounds and their reported [14C] Fucose Incorporated (CPM).
Prompt: [14C] Fucose Incorporated (CPM) for CC(=O)N[C@H]1[C@H](OCc2ccccc2)O[C@H](CO)[C@@H](O)[C@@H]1O[C@@H]1O[C@H](CO)[C@H](O)[C@H](O)[C@H]1O [Ga1β1,3G1cNAcβ-O--Bn] ?
Completion: 74260

Prompt: Try CO[C@H]1[C@H](O[C@H]2[C@H](O)[C@@H](NC(C)=O)C(O)O[C@@H]2CO)O[C@H](CO)[C@H](O)[C@@H]1O (some centres unmarked) [2'-methyl LacNAc] next.
Completion: 7392

Prompt: Try CC(=O)N[C@H]1C(O)O[C@H](CO)[C@@H](O[C@@H]2O[C@H](COS(=O)(=O)O)[C@H](O)[C@H](O)[C@H]2O)[C@@H]1O (some centres unmarked) [6'-Sulfo LacNAc] next.
Completion: 395

Prompt: Try CC(=O)N[C@H]1[C@H](O[C@H]2[C@@H](O)[C@@H](CO)O[C@@H](Oc3ccc([N+](=O)[O-])cc3)[C@@H]2O)O[C@H](CO)[C@@H](O[C@@H]2O[C@H](CO)[C@H](O)[C@H](O)[C@H]2O)[C@@H]1O [LacNAcβ1,3Ga1β-O--PNP] next.
Completion: 6432

***
Prompt: [14C] Fucose Incorporated (CPM) for CC(=O)N[C@H]1[C@@H](Oc2ccccc2[N+](=O)[O-])O[C@H](CO[C@@H]2O[C@H](CO)[C@@H](O)[C@H](O)[C@H]2NC(C)=O)[C@H](O)[C@@H]1O [G1cNAcβ1,6Ga1NAcα-O--ONp] ?
Completion: 0

Ref: patent US5620864A
